- target.system: Human immunodeficiency virus type 1 reverse transcriptase (Human immunodeficiency virus 1)
- protocol.notes: Inhibition of HIV1 reverse transcriptase RNase-H activity using dATP, dCTP, dTTP, [8-3H(N)]-dGTP, oligo1, oligo 2, oligo 3 as substrate preincubated for 30 mins followed by substrate addition measured after 90 mins
metric.name: pIC50
One number for each entry, as −log10 of the molar value.

Recorded pIC50, per entry:
O=c1nc(Nc2ccc(-c3ccncc3)cc2)c2cccnc2n1O
7.10
O=c1nc(NCc2ccc(F)cc2)c2cccnc2n1O
6.80

Report pIC50 for each item below.
1. O=c1nc(NCc2ccc(N3CCOCC3)cc2)c2cccnc2n1O
2. O=c1nc(Nc2ccc(N3CCOCC3)cc2)c2cccnc2n1O
3. O=c1nc(NCc2cccc(CN3CCOCC3)c2)c2cccnc2n1O

OUTPUT:
[7.00, 7.30, 6.40]
